measured_on: UniProtKB Q9H244
Sequence (Q9H244 whole entry): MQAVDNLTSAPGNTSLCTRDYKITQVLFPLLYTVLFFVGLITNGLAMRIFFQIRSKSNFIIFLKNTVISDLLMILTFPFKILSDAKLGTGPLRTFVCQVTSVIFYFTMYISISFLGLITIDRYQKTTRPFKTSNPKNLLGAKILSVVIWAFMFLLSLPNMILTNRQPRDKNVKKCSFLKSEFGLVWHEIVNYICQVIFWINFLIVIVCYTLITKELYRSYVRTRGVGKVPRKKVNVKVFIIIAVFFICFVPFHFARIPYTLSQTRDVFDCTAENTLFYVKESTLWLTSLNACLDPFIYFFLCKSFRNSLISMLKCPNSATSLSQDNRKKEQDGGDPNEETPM
test_details: Displacement of [33P]ADP from human recombinant P2Y12 receptor expressed in CHO cells
I'd be grateful if you could share measured pKi for these entries.
Answers are plain numbers, as −log10 of the molar value.

Example entries and their recorded answers appear below.
{"compound": "CCCCCOC(=O)N1CCN(C(=O)[C@H](CCC(=O)O)NC(=O)c2cc(NC(=O)CN3CCN(C)CC3)cc(-c3ccccc3)n2)CC1", "pKi": 8.64}
{"compound": "CCCCCOC(=O)N1CCN(C(=O)[C@H](CCC(=O)O)NC(=O)c2cc(OCC)cc(-c3ccccc3)n2)CC1", "pKi": 8.10}
{"compound": "CCCCCOC(=O)N1CCN(C(=O)[C@H](CCC(=O)O)NC(=O)c2cc(N3CCC(NC)CC3)cc(-c3ccccc3)n2)CC1", "pKi": 8.19}

Go through the items and report each one's pKi.
1. CCCCOc1cc(C(=O)N[C@@H](CCC(=O)O)C(=O)N2CCN(C(=O)OCC)CC2)nc(-c2ccccc2)c1
2. CCCCCOC(=O)N1CCN(C(=O)[C@H](CCC(=O)O)NC(=O)c2cc(NC(=O)OCC3CCNCC3)cc(-c3ccccc3)n2)CC1
3. CCOC(=O)N1CCN(C(=O)[C@H](CCC(=O)O)NC(=O)c2cc(N3CCC(CO)CC3)cc(-c3ccccc3)n2)CC1
4. CCCCCOC(=O)N1CCN(C(=O)[C@H](CCC(=O)O)NC(=O)c2cc(OCC3CCNCC3)cc(-c3ccccc3)n2)CC1
5. CCCCCOC(=O)N1CCN(C(=O)[C@H](CCC(=O)O)NC(=O)c2cc(OCC3CCN(S(=O)(=O)CC)CC3)cc(-c3ccccc3)n2)CC1

7.22
8.77
7.27
8.35
8.13

Go through the items and report each one's pKi.
1. CCCCCOC(=O)N1CCN(C(=O)[C@H](CCC(=O)O)NC(=O)c2cc(OC3CCN(C(C)=O)CC3)cc(-c3ccccc3)n2)CC1
2. O=C(O)CC[C@H](NC(=O)c1cccc(-c2ccccc2)n1)C(=O)N1CCN(C(=O)OCC2CCCC2)CC1
3. CCCCCNC(=O)N1CCN(C(=O)[C@H](CCC(=O)O)NC(=O)c2cccc(-c3ccccc3)n2)CC1
4. CCCCC(=O)N1CCN(C(=O)[C@H](CCC(=O)O)NC(=O)c2cccc(-c3ccccc3)n2)CC1

8.44
7.34
7.26
5.84

Go through the items and report each one's pKi.
1. CCCCCOC(=O)N1CCN(C(=O)[C@H](CCC(=O)O)NC(=O)c2cc(NC(C)=O)cc(-c3ccccc3)n2)CC1
2. CCCCOC(=O)N1CCN(C(=O)[C@H](CCC(=O)O)NC(=O)c2cc(OCCC3CCCCN3)cc(-c3ccccc3)n2)CC1 (some centres not stated)
3. CCCCOC(=O)N1CCN(C(=O)[C@H](CCC(=O)O)NC(=O)c2cc(OCC3CCN(C(C)C)CC3)cc(-c3ccccc3)n2)CC1
4. CCOC(=O)N1CCN(C(=O)[C@H](CCC(=O)O)NC(=O)c2cc(-c3ccccc3)cc(-c3ccccc3)n2)CC1
5. CCCNC(=O)N1CCN(C(=O)[C@H](CCC(=O)O)NC(=O)c2cccc(-c3ccccc3)n2)CC1

1. 8.21
2. 8.43
3. 8.35
4. 7.82
5. 6.56

Go through the items and report each one's pKi.
1. Cc1cccc(N2CCN(C(=O)[C@H](CCC(=O)O)NC(=O)c3cccc(-c4ccccc4)c3)CC2)c1
2. Cc1cccc(N2CCN(C(=O)[C@H](CCC(=O)O)NC(=O)c3cc(-c4ccccc4)cc(-c4ccccc4)n3)CC2)c1
3. CCCCCOC(=O)N1CCN(C(=O)[C@H](CCC(=O)O)NC(=O)c2cc(N3CCC(N4CCOCC4)CC3)cc(-c3ccccc3)n2)CC1
4. CCCCCOC(=O)N1CCN(C(=O)[C@H](CCC(=O)O)NC(=O)c2cc(OC(=O)N3CCCC3)cc(-c3ccccc3)n2)CC1
5. CCCCCCOC(=O)N1CCN(C(=O)[C@H](CCC(=O)O)NC(=O)c2cc(NCCOC)cc(-c3ccccc3)n2)CC1
6. CCCCNC(=S)N1CCN(C(=O)[C@H](CCC(=O)O)NC(=O)c2cccc(-c3ccccc3)n2)CC1

1: 5.88; 2: 6.82; 3: 8.00; 4: 8.11; 5: 7.96; 6: 8.10
